- test.name: Cytotoxicity against human MCF7 cells after 72 hrs by MTT assay
- Type: functional, cell-based
- condition.info: MCF7, 72 h
Kindly apply the following: YES if IC50 is less than 20 µM, NO in every other case.

Reference set, count: 3
CNC(=O)c1cc(Oc2ccc(/C=C/C(=O)c3ccc(Br)cc3)cc2)ccn1 :: YES
CNC(=O)c1cc(Oc2ccc(/C=C/C(=O)c3ccc(C)cc3)cc2)ccn1 :: NO
CNC(=O)c1cc(Oc2ccc(C(=O)/C=C/c3ccc(C#N)cc3)cc2)ccn1 :: YES

Query: Just wondering, is IC50 of CNC(=O)c1cc(Oc2ccc(/C=C/C(=O)c3ccc(F)cc3)cc2)ccn1 below 20 µM?
Result: YES

Query: Please determine if CNC(=O)c1cc(Oc2ccc(C(=O)/C=C/c3ccc(F)cc3Cl)cc2)ccn1 is below 20 µM in terms of IC50.
Result: NO

Query: Find out if reported IC50 for CNC(=O)c1cc(Oc2ccc(C(=O)/C=C/c3ccc(Cl)cc3Cl)cc2)ccn1 is less than 20 µM
Result: YES

Query: Quick check: does CNC(=O)c1cc(Oc2ccc(/C=C/C(=O)c3ccc([N+](=O)[O-])cc3)cc2)ccn1 have IC50 under 20 µM?
Result: NO

Query: Find out if reported IC50 for CNC(=O)c1cc(Oc2ccc(C(=O)/C=C/c3ccc(Cl)c(Cl)c3)cc2)ccn1 is less than 20 µM
Result: YES

Query: is_below(IC50, 20 µM) for CNC(=O)c1cc(Oc2ccc(C(=O)/C=C/c3ccc(F)cc3)cc2)ccn1 ?
Result: NO

Query: Dear reviewer, please state whether CNC(=O)c1cc(Oc2ccc(C(=O)/C=C/c3cccc([N+](=O)[O-])c3)cc2)ccn1 has IC50 strictly beneath 20 µM.
Result: NO
